target: NRAS G12C (Homo sapiens (Human), UniProt P01111+P62937, G12C); assay: Ras-Raf (BRAF RBD) disruption / FRET / MOA assay, NRAS G12C; format: biochemical; settings: read-out: IC50* NRAS G12C FRET data
Sequence (P01111 whole entry G12C): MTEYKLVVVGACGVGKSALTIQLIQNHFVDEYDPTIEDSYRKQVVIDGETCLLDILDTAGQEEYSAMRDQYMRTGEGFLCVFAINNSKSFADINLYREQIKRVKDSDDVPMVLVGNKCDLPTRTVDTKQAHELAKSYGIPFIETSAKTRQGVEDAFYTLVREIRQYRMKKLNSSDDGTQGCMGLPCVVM
Sequence (P62937 whole entry): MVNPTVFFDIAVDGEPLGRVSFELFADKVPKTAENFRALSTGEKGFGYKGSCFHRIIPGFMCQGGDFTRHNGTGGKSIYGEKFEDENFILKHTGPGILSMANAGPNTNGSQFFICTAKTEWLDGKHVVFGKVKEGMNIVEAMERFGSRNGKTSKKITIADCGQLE
pIC50: −log10 of the molar value.
reported_metric: pIC50

Query: pIC50; subject: CCn1c(-c2cccnc2[C@H](C)OC)c2c3cc(ccc31)-c1cccc(c1)C[C@H](NC(=O)[C@H](C(C)C)N(C)C(=O)[C@H]1CCN(C(=O)C#CC(C)(C)N3CCCC3)C1)C(=O)N1CCC[C@H](N1)C(=O)OCC(C)(C)C2 (atropisomer, axis not shown)
> 8.00

Query: pIC50; subject: C=CC(=O)N(C)CC1CN(C(=O)N(C)[C@H](C(=O)N[C@H]2Cc3nc(cs3)-c3ccc4c(c3)c(c(-c3cccnc3[C@H](C)OC)n4CC)CC(C)(C)COC(=O)[C@@H]3CCCN(N3)C2=O)C(C)C)C1 (atropisomer, axis not shown)
7.00 to 8.00

Query: pIC50; subject: C=CC(=O)N1CC(OC[C@H](C(=O)N[C@H]2Cc3cccc(c3)-c3ccc4c(c3)c(c(-c3cccnc3[C@H](C)OC)n4CC(F)(F)F)CC(C)(C)COC(=O)[C@@H]3CCCN(N3)C2=O)C(C)C)C1 (atropisomer, axis not shown)
7.00 to 8.00

Query: pIC50; subject: C=CC(=O)N1CC[C@H](C(=O)N(C)[C@H](C(=O)NC2C[C@@H]3CN(CCO3)c3ccc4c(c3)c(c(-c3cccnc3[C@H](C)OC)n4CC)CC(C)(C)COC(=O)[C@@H]3CC(Br)CN(N3)C2=O)C(C)C)C1 (some centres unmarked)
5.00 to 6.00

Query: pIC50; subject: C=CC(=O)N1CCOC2(CCN(C(=O)N(C)[C@H](C(=O)N[C@H]3Cc4nsc(n4)-c4ccc5c(c4)c(c(-c4cccnc4[C@H](C)OC)n5CC)CC(C)(C)COC(=O)[C@@H]4CCCN(N4)C3=O)C(C)C)CC2)C1 (atropisomer, axis not shown)
7.00 to 8.00

Query: pIC50; subject: C=CC(=O)N1CC[C@H](C(=O)N(C)[C@H](C(=O)N[C@H]2Cc3cccc(c3)-c3ccc4c(c3)c(c(-c3cc(C5CCN(C)CC5)cnc3[C@H](C)OC)n4CC)CC(C)(C)COC(=O)[C@@H]3CCCN(N3)C2=O)C(C)C)C1 (atropisomer, axis not shown) [Example A516]
5.00 to 6.00

Query: pIC50; subject: C=CC(=O)N(C)[C@@H]1CCCN(C(=O)N(C)[C@H](C(=O)N[C@H]2Cc3nc(cs3)-c3ccc4c(c3)c(c(-c3cccnc3[C@H](C)OC)n4CC)CC(C)(C)COC(=O)[C@@H]3CCCN(N3)C2=O)C(C)C)C1 (atropisomer, axis not shown)
7.00 to 8.00

Query: pIC50; subject: C/C=C/C(=O)N1CC2(CCN(C(=O)N(C)[C@H](C(=O)N[C@H]3Cc4nc(cs4)-c4ccc5c(c4)c(c(-c4cccnc4[C@H](C)OC)n5CC)CC(C)(C)COC(=O)[C@@H]4CCCN(N4)C3=O)C(C)C)CC2)C1 (atropisomer, axis not shown)
7.00 to 8.00

Query: pIC50; subject: C=CC(=O)NCCN1CCN(C(=O)N(C)[C@H](C(=O)N[C@H]2Cc3nc(cs3)-c3ccc4c(c3)c(c(-c3cccnc3[C@H](C)OC)n4CC)CC(C)(C)COC(=O)[C@@H]3CCCN(N3)C2=O)C(C)C)CC1 (atropisomer, axis not shown)
7.00 to 8.00

Query: pIC50; subject: CCn1c(-c2cccnc2[C@H](C)OC)c2c3cc(ccc31)-c1cccc(c1)C[C@H](NC(=O)[C@H](C(C)C)N1CC[C@@]3(CCN(C(=O)C#C[C@H]4COCCN4C)C3)C1=O)C(=O)N1CCC[C@H](N1)C(=O)OCC(C)(C)C2 (atropisomer, axis not shown)
> 8.00

Query: pIC50; subject: CO[C@@H](C)c1ncccc1-c1c2c3cc(ccc3n1CC(F)(F)F)-c1csc(n1)C[C@H](NC(=O)[C@H](C(C)C)N(C)C(=O)N1C[C@@H]3OCCN(C(=O)/C=C/C(F)F)[C@@H]3C1)C(=O)N1CCC[C@H](N1)C(=O)OCC(C)(C)C2 (atropisomer, axis not shown)
7.00 to 8.00

Query: pIC50; subject: C=CC(=O)N1CC[C@H](C(=O)N(C)[C@H](C(=O)N[C@H]2Cc3cccc(c3)-c3ccc4c(c3)c(c(-c3cc5c(nc3[C@H](C)OC)CN(C)CC5)n4CC)CC(C)(C)COC(=O)[C@@H]3CCCN(N3)C2=O)C(C)C)C1 (atropisomer, axis not shown)
6.00 to 7.00

Query: pIC50; subject: CCn1c(-c2cccnc2[C@H](C)OC)c2c3cc(ccc31)-c1cnc(o1)C[C@H](NC(=O)[C@H](C(C)C)N(C)C(=O)[C@H]1CCN(C(=O)C#CC(C)(C)N(C)C)C1)C(=O)N1CCC[C@H](N1)C(=O)OCC(C)(C)C2 (atropisomer, axis not shown)
> 8.00

Query: pIC50; subject: C=CC(=O)N1CC[C@H](C(=O)N(C)[C@H](C(=O)N[C@H]2Cn3cnc(n3)-c3ccc4c(c3)c(c(-c3cccnc3[C@H](C)OC)n4CC)CC(C)(C)COC(=O)[C@@H]3CCCN(N3)C2=O)C(C)C)C1 (atropisomer, axis not shown)
6.00 to 7.00

Entry source: patent US11566007B2
